- target under test: GlcNAc(b1-4)GlcNAc(b1-4)GlcNAc(b1-4)GlcNAc(b1-4)GlcNAc
- procedure details: glycan array binding signal (z-score within array); higher = stronger binding
- run parameters: glycan notation: IUPAC condensed, linker removed
About 410 targets per protein were measured; listed, in parts, are those with the strongest signals and a random draw of the rest.
Task for the reader: assign each of the following binders its reported glycan array binding signal (z-score).
One number for each entry.

A selection of reference data follows.
Field glycan array binding signal (z-score) (entry Pwp4 (Candida glabrata) (protein) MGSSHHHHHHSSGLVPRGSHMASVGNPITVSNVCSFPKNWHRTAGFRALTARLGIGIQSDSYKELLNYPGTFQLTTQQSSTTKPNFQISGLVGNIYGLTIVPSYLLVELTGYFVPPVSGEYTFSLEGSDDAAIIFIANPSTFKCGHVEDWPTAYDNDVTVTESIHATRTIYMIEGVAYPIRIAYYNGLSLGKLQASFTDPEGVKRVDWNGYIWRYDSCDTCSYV ) reads -0.442

Field glycan array binding signal (z-score) (entry Vd2LysM (Verticillium dahliae) (protein) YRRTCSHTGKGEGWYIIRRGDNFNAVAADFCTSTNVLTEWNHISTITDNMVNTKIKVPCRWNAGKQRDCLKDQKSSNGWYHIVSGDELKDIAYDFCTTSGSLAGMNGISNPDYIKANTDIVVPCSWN ) reads 8.56

Kindly review the next binder as well.
Field glycan array binding signal (z-score) (entry AFCNVH (Aspergillus fumigatus) (protein) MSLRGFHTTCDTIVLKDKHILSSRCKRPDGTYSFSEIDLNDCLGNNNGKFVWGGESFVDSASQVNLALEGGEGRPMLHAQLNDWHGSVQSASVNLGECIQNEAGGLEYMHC ) reads 3.83
